- Tested on: HCT116
- procedure-summary: MTT assay, antiproliferative activity against HCT116 cells
- Type: cell-based
- condition-label: Homo sapiens, HCT-116, 72 h, mean of at least two determinations
Label Condition met when IC50 is strictly below 2000 nM; otherwise label Condition not met.

# compound, group-label
records = [
    ("Cc1ccc(S(=O)(=O)c2nc3ccccc3nc2N2CCN(S(C)(=O)=O)CC2)cc1", "Condition met"),
    ("Cc1ccc(S(=O)(=O)c2nc3ccccc3nc2N2CCN(C(=O)c3ccc(Cl)cc3)CC2)cc1", "Condition not met"),
    ("O=S(=O)(c1ccc(F)cc1)c1nc2ccccc2nc1N1CCNCC1", "Condition not met"),
    ("NC(=O)C1CCN(c2nc3ccccc3nc2S(=O)(=O)c2ccc(F)cc2)CC1", "Condition not met"),
    ("Cc1ccc(S(=O)(=O)N2CCN(c3nc4ccccc4nc3S(=O)(=O)c3ccccc3)CC2)cc1", "Condition not met"),
    ("CC(=O)N1CCN(c2nc3ccccc3nc2S(=O)(=O)c2ccccc2)CC1", "Condition met"),
    ("O=S(=O)(c1ccccc1)c1nc2ccccc2nc1N1CCN(CCCN2CCOCC2)CC1", "Condition met"),
    ("CC1CN(c2nc3ccccc3nc2S(=O)(=O)c2ccccc2)CCN1 (centres unmarked)", "Condition met"),
]

----------
- Tested on: PC3
- procedure-summary: MTT assay, antiproliferative activity against PC3 cells
- Type: cell-based
- condition-label: Homo sapiens, PC-3, 72 h, mean of at least two determinations
Param label: returns 1 (yes) when IC50 < 3 µM, returns 0 (no) otherwise, including exact equality.

# molecule, group-label
data = [
    ("CS(=O)(=O)N1CCN(c2nc3ccccc3nc2S(=O)(=O)c2ccccc2)CC1 [Compound 39]", "1 (yes)"),
    ("CC1CN(c2nc3ccccc3nc2S(=O)(=O)c2ccc(Br)cc2)CCN1 (centres unmarked) [Compound 27]", "1 (yes)"),
    ("NC(=O)C1CCN(c2nc3ccccc3nc2S(=O)(=O)c2ccc(F)cc2)CC1 [Compound 8]", "0 (no)"),
    ("O=S(=O)(c1ccc(Br)cc1)c1nc2ccccc2nc1N1CCN(CCCN2CCOCC2)CC1 [Compound 52]", "1 (yes)"),
    ("Cc1ccc(S(=O)(=O)c2nc3ccccc3nc2N2CCN(S(C)(=O)=O)CC2)cc1 [Compound 40]", "0 (no)"),
    ("Cc1ccc(S(=O)(=O)c2nc3ccccc3nc2N2CCN(C(=O)c3ccc(Cl)cc3)CC2)cc1 [Compound 35]", "0 (no)"),
    ("CS(=O)(=O)N1CCN(c2nc3ccccc3nc2S(=O)(=O)c2ccc(Br)cc2)CC1 [Compound 42]", "1 (yes)"),
    ("O=C(c1ccc(Cl)cc1)N1CCN(c2nc3ccccc3nc2S(=O)(=O)c2ccc(Br)cc2)CC1 [Compound 37]", "1 (yes)"),
    ("Cc1ccc(S(=O)(=O)c2nc3ccccc3nc2N2CCNCC2)cc1 [Compound 20]", "1 (yes)"),
    ("O=S(=O)(c1ccc(Br)cc1)c1nc2ccccc2nc1N1CCNCC1 [Compound 22]", "1 (yes)"),
    ("COc1ccc(S(=O)(=O)c2nc3ccccc3nc2N2CCNC(C)C2)cc1 (centres unmarked) [Compound 26]", "1 (yes)"),
    ("COc1ccc(S(=O)(=O)c2nc3ccccc3nc2N2CCN(C(=O)c3ccc(Cl)cc3)CC2)cc1 [Compound 36]", "1 (yes)"),
    ("CC(=O)N1CCN(c2nc3ccccc3nc2S(=O)(=O)c2ccc(F)cc2)CC1 [Compound 13]", "0 (no)"),
    ("Cc1ccc(S(=O)(=O)c2nc3ccccc3nc2N2CCN(C(=O)c3ccccc3)CC2)cc1 [Compound 30]", "0 (no)"),
    ("NC(=O)C1CCN(c2nc3ccccc3nc2S(=O)(=O)c2ccccc2)CC1 [Compound 4]", "1 (yes)"),
]

----------
Here the recorded IC50 is given for each entry.
- Test system: HCT116
- procedure-summary: MTT assay, antiproliferative activity against HCT116 cells
- Assay type: cell-based
- condition-label: Homo sapiens, HCT-116, 72 h, mean of at least two determinations

# compound, system-under-test, IC50 (µM)
measured = [
    ("CS(=O)(=O)N1CCN(c2nc3ccccc3nc2S(=O)(=O)c2ccc(Br)cc2)CC1", "HCT116", 0.41),
    ("O=C(c1ccccc1)N1CCN(c2nc3ccccc3nc2S(=O)(=O)c2ccccc2)CC1", "HCT116", 42.4),
    ("Cc1ccc(S(=O)(=O)c2nc3ccccc3nc2N2CCNCC2)cc1", "HCT116", 0.47),
    ("CS(=O)(=O)N1CCN(c2nc3ccccc3nc2S(=O)(=O)c2ccccc2)CC1", "HCT116", 1.21),
    ("Cc1ccc(S(=O)(=O)N2CCN(c3nc4ccccc4nc3S(=O)(=O)c3ccc(F)cc3)CC2)cc1", "HCT116", 3.76),
    ("CC1CN(c2nc3ccccc3nc2S(=O)(=O)c2ccc(Br)cc2)CCN1 (centres unmarked)", "HCT116", 0.32),
    ("CC(=O)N1CCN(c2nc3ccccc3nc2S(=O)(=O)c2ccc(Br)cc2)CC1", "HCT116", 0.53),
    ("Cc1ccc(S(=O)(=O)c2nc3ccccc3nc2N2CCN(CCCN3CCOCC3)CC2)cc1", "HCT116", 0.31),
    ("COc1ccc(S(=O)(=O)c2nc3ccccc3nc2N2CCN(S(C)(=O)=O)CC2)cc1", "HCT116", 0.55),
    ("COc1ccc(S(=O)(=O)c2nc3ccccc3nc2N2CCN(S(=O)(=O)c3ccc(C)cc3)CC2)cc1", "HCT116", 14.2),
    ("Cc1ccc(S(=O)(=O)c2nc3ccccc3nc2N2CCNC(C)C2)cc1 (centres unmarked)", "HCT116", 1.17),
    ("O=S(=O)(c1ccccc1)c1nc2ccccc2nc1N1CCNCC1", "HCT116", 0.99),
    ("CN1CCN(c2nc3ccccc3nc2S(=O)(=O)c2ccccc2)CC1", "HCT116", 2.78),
    ("O=c1cc(N2CCOCC2)oc2c(-c3ccccc3)cccc12 [LY294002, reference compound]", "HCT116", 56),
    ("Cc1ccc(S(=O)(=O)c2nc3ccccc3nc2N2CCN(C(=O)c3ccccc3)CC2)cc1", "HCT116", 6.9),
    ("Cc1ccc(S(=O)(=O)c2nc3ccccc3nc2N2CCN(S(=O)(=O)c3ccc(C)cc3)CC2)cc1", "HCT116", 1.92),
    ("COc1ccc(S(=O)(=O)c2nc3ccccc3nc2N2CCN(C(C)=O)CC2)cc1", "HCT116", 3.66),
]

----------
Catalogue of pIC50 readings, one per entry.
- System: A549
- procedure-summary: MTT assay, antiproliferative activity against A549 cells
- Assay type: cell-based
- condition-label: Homo sapiens, 72 h, mean of at least two determinations
pIC50: −log10 of the molar value.
measure-name: pIC50

# compound, measure-name, numeric-readout
rows = [
    ("Cc1ccc(S(=O)(=O)N2CCN(c3nc4ccccc4nc3S(=O)(=O)c3ccc(F)cc3)CC2)cc1", "pIC50", 4.32),
    ("CC1CN(c2nc3ccccc3nc2S(=O)(=O)c2ccc(Br)cc2)CCN1 (centres unmarked)", "pIC50", 6.24),
    ("Cc1ccc(S(=O)(=O)c2nc3ccccc3nc2N2CCN(C)CC2)cc1", "pIC50", 5.62),
    ("Cc1ccc(S(=O)(=O)c2nc3ccccc3nc2N2CCN(C(=O)c3ccccc3)CC2)cc1", "pIC50", 5.10),
    ("NC(=O)C1CCN(c2nc3ccccc3nc2S(=O)(=O)c2ccccc2)CC1", "pIC50", 4.57),
    ("Cc1ccc(S(=O)(=O)c2nc3ccccc3nc2N2CCN(S(C)(=O)=O)CC2)cc1", "pIC50", 5.71),
    ("COc1ccc(S(=O)(=O)c2nc3ccccc3nc2N2CCN(C)CC2)cc1", "pIC50", 5.07),
    ("Cc1ccc(S(=O)(=O)c2nc3ccccc3nc2N2CCNC(C)C2)cc1 (centres unmarked)", "pIC50", 5.80),
]

----------
- System: PC3
- procedure-summary: MTT assay, antiproliferative activity against PC3 cells
- Type: cell-based
- condition-label: Homo sapiens, PC-3, 72 h, mean of at least two determinations
Entries and their log10(IC50)
measure-name: log10(IC50) (log10 of the value in nM)

# molecule, numeric-readout
rows = [
    ("O=C(c1ccccc1)N1CCN(c2nc3ccccc3nc2S(=O)(=O)c2ccc(Br)cc2)CC1", 3.15),
    ("O=S(=O)(c1ccc(F)cc1)c1nc2ccccc2nc1N1CCN(CCCN2CCOCC2)CC1", 3.68),
    ("Cc1ccc(S(=O)(=O)c2nc3ccccc3nc2N2CCN(CCCN3CCOCC3)CC2)cc1", 3.58),
    ("Cc1ccc(S(=O)(=O)N2CCN(c3nc4ccccc4nc3S(=O)(=O)c3ccc(F)cc3)CC2)cc1", 3.53),
    ("Cc1ccc(S(=O)(=O)c2nc3ccccc3nc2N2CCNC(C)C2)cc1 (stereo not shown)", 3.31),
    ("Cc1ccc(S(=O)(=O)N2CCN(c3nc4ccccc4nc3S(=O)(=O)c3ccc(Br)cc3)CC2)cc1", 3.69),
    ("NC(=O)C1CCN(c2nc3ccccc3nc2S(=O)(=O)c2ccc(Br)cc2)CC1", 3.07),
    ("O=S(=O)(c1ccc(F)cc1)c1nc2ccccc2nc1N1CCNCC1", 3.31),
    ("O=c1cc(N2CCOCC2)oc2c(-c3ccccc3)cccc12 [LY294002, reference compound]", 4.79),
    ("Cc1ccc(S(=O)(=O)N2CCN(c3nc4ccccc4nc3S(=O)(=O)c3ccccc3)CC2)cc1", 3.34),
]
